src = patent EP0234113A1

# System: Dopamine (3H-spiperone)
# ASSAY COMMENT: Receptor Binding Assay with 3H-spiperone (Dopamine Binding Assay), rat brain homogenate
# PARTICULARS: single concentration of 1 uM, 3H-spiperone, rat brain homogenate; 30 min
Form field: Dopamine Binding Assay % Decrease from Control (one value per entry).

// returns reported Dopamine Binding Assay % Decrease from Control for input CNC1Cc2cccc3c(C)ccc(c23)C1 (stereo not shown) -55.37%

// returns reported Dopamine Binding Assay % Decrease from Control for input CCCN(CCC)C1(C)Cc2cccc3cc(O)cc(c23)C1 (stereo not shown) -55.18%

// returns reported Dopamine Binding Assay % Decrease from Control for input Cc1ccc2c3c(cccc13)CC(N)C2 (stereo not shown) [Example 38, part C, 6-methyl-2,3-dihydro-lH-phenalen-2-amine] -30.62%

// returns reported Dopamine Binding Assay % Decrease from Control for input CCCN(CCC)C1Cc2cccc3c(C)ccc(c23)C1 (stereo not shown) -82.08%
